Sourced from PubChem BioAssay AID179

The reader will find reported pIC50 values listed item by item below.
# System: CEM cells HIV-1 protection, formazan growth assay
# experimentalDetails: NCI AIDS Antiviral Assay
# runConditions: measured here: growth of uninfected CEM cells
pIC50: −log10 of the molar value.

Below are worked cases with known answers.
COC(=O)CCC1(CCC(=O)OC)CCCCCCC(CCC(=O)OC)(CCC(=O)OC)C(=O)C1=O
< 3.70
CC(C)c1ccc(Cc2ccc(C(C)C)c(NC(=O)C(=O)Cc3cnc4ccccc4n3)c2C(C)C)c(C(C)C)c1NC(=O)C(=O)Cc1cnc2ccccc2n1
< 4.88
CC(=O)Nc1ccc(/C=C/C(=O)c2sc(-c3nc(C)c(C(=O)/C=C/c4ccc(NC(C)=O)cc4)s3)nc2C)cc1
< 4.48
O=C(NC1C(=O)NNC1c1cccc([N+](=O)[O-])c1)c1ccccc1 (stereo unspecified)
< 3.54
C=CC(OCC)(OCC)OCC
< 2.84

Attention now turns to another entry.
# pIC50 lookup, item OC(Cc1ccc2ccccc2n1)(C(F)(F)F)C(F)(F)F
< 3.70

====

The reader will find reported IC50 values listed item by item below.
# Test system: CEM cells HIV-1 protection, formazan growth assay
# experimentalDetails: NCI AIDS Antiviral Assay
# runConditions: measured here: growth of uninfected CEM cells

Below are worked cases with known answers.
COP(=O)(CC(=O)C1OC(C)(C)OC1C(O)COCc1ccccc1)OC (stereo not given)
> 324 µM
CC(=O)OCC1OC(n2c(=S)n(-c3ccccc3)c(=O)c3cc(Br)ccc32)C(OC(C)=O)C(OC(C)=O)C1OC(C)=O (stereo not given)
> 10.7 µM
O=C(O)CP(=S)(S)c1ccccc1 (stereo not given)
> 5620 µM

# IC50 lookup, item C=C(C[N+](C)(C)C)N/N=C/c1oc(-c2ccc(OC)c(OC)c2)c(-c2ccc(OC)c(OC)c2)c1[N+](=O)[O-]
> 12.9 µM

Also COC(=O)C1C(C(=O)OC)C2C(=O)C3C(C(=O)OC)C(C(=O)OC)C3C(=O)C12 (stereo not given) , if possible.
> 91.2 µM

====

The reader will find reported IC50 values listed item by item below.
# Test system: CEM cells HIV-1 protection, formazan growth assay
# experimentalDetails: NCI AIDS Antiviral Assay
# runConditions: measured here: growth of uninfected CEM cells

Below are worked cases with known answers.
CCOP(=S)(OCC)Oc1ccc2c(C)c(Cl)c(=O)oc2c1
> 37.2 µM
COC(=O)C(CC(=O)Nc1ccc(C)cc1)C(=O)C(=O)Nc1ccccc1C(C)C (stereo not drawn)
> 229 µM

Attention now turns to another entry.
# IC50 lookup, item NC(Cc1ccc(S(=O)(=O)O)cc1)C(=O)NC(Cc1ccc(S(=O)(=O)O)cc1)C(=O)NC(Cc1ccc(S(=O)(=O)O)cc1)C(=O)NC(Cc1ccc(S(=O)(=O)O)cc1)C(=O)O (stereo not drawn)
> 200 µM

====

# System: CEM cells HIV-1 protection, formazan growth assay
# experimentalDetails: NCI AIDS Antiviral Assay
# runConditions: measured here: growth of uninfected CEM cells
propertyName: log10(IC50) (log10 of the value in µM)
// stored as log10 of IC50 expressed in µM

Below are worked cases with known answers.
Cc1ccc(C(=O)O)c(/C=C2\Cc3ccc(C)cc3C2=O)c1
1.99
N#Cc1c(=O)n(-c2ccccc2)c(O)c2c(N)n[nH]c12
1.95
CC(C)(C)[Si](C)(C)OCC#C[C@@]1(O)CCCCC1CC(Sc1ccccc1)Sc1ccccc1 (stereo partly drawn)
1.10
O=S(=O)(Cc1ccccc1)c1nnc(S(=O)(=O)c2ccc(Cl)cc2)s1
0.74
Cc1sc(N)c(S(=O)(=O)c2ccccc2)c1C
2.29
COc1cc(-c2ccc(N=Nc3cc(S(=O)(=O)O)c4ccccc4c3N)c(OC)c2)ccc1N=Nc1cc(S(=O)(=O)O)c2ccccc2c1N
2.19

# log10(IC50) lookup, item CC(=O)N(/N=C1\CC(c2ccccc2)Oc2ccccc21)C(C)=O (stereo not drawn)
2.01

Also CCOC(=O)/C=C/c1ccccn1 , if possible.
2.81

Also CCOC(=O)CN=C1Nc2ccccc2C(=O)N2CSCC12 (stereo not drawn) , if possible.
2.20

Also COC(=O)CP(=O)(OC)OCC(F)(F)F (stereo not drawn) , if possible.
2.92

Also CCOC1=C(c2ccccc2)Oc2cccnc2-n2cccc21 , if possible.
2.14
